Data origin: the supplement of paper PMC10126150

Catalogue of switch fluorescence ratio readings, one per entry.
System: ATP;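 also: ATP exposure 15 min at 22 °C before imaging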
METHOD: switch fluorescence ratio, 500 uM ATP over buffer (Cy3 cluster intensity, sum of 5 cycles each) (fold (ratio)); higher = stronger signal-on switching upon ATP binding; sequences stand for … in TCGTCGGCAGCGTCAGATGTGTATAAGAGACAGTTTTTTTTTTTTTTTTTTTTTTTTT…TC
RUN_PARAMETERS: aptamer strand: ATP DNA aptamer (quencher-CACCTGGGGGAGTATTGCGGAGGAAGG + anchor), 100 nM annealed; ATP concentration: 500 uM
MEASURED_METRIC: switch fluorescence ratio

> print(dat)
    item.sequence  numeric.readout
 1     TTACAGTTAA             1.01
 2     CATCTTGAAA             1.03
 3     TGCCCTATTT            0.986
 4     GATCGAGACC             1.02
 5     GATCCATGCT            0.954
 6     ATTGAGAGGG             1.07
 7     TTTGTCCATG            0.996
 8     TAAAAAGCGC             1.03
 9      TTCGGACGT             1.02
10     TCCGATGGGG             1.08
11     CTCGGCCGGC            0.982
12     TTTTGGGATC            0.996
13     CGGTGTGTGG            0.999
14     TTCACGGCCC             1.04
15     TTGTAAAATA            0.978
16     TACGGTAAAA            0.986
17     CATATACGAG             1.11
18     TTTTTCATTT             1.01
19     TTAGCATAGT             0.98
20     ATTTATTCTT             1.01
21     TATGGTTTTT            0.996
22     AGCTGGGATT            0.989
23     TAAGGGGAAA            0.979
24     GATCCAATGT            0.993
25     GTGGATTGGC            0.982

====

System: ATP;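 also: ATP exposure 15 min at 22 °C before imaging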
METHOD: switch fluorescence ratio, 500 uM ATP over buffer (Cy3 cluster intensity, sum of 5 cycles each) (fold (ratio)); higher = stronger signal-on switching upon ATP binding; sequences stand for … in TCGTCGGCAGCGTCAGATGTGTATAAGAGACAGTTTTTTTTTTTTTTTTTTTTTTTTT…TC
RUN_PARAMETERS: aptamer strand: ATP DNA aptamer (quencher-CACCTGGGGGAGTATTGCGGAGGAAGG + anchor), 100 nM annealed; ATP concentration: 500 uM
Given measured switch fluorescence ratio, output yes (1) if it is greater than or equal to 1 and no (0) if not.

> print(dat)
    item.sequence    label
 1     ACGTGCAGTC  yes (1)
 2     TAGAAACCTT  yes (1)
 3     AAGAGGTTTG   no (0)
 4     TTCACGGGAT  yes (1)
 5     GTGGGGCCTG   no (0)
 6     GGGAATTAAT  yes (1)
 7      TAACGCATG  yes (1)
 8     GGTCGTTGGT  yes (1)
 9     TAAGGAATGC  yes (1)
10      TTTCGGAGA  yes (1)
11     TACCACGGGT  yes (1)

====

Tested on: ATP;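 also: ATP exposure 15 min at 22 °C before imaging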
METHOD: switch fluorescence ratio, 500 uM ATP over buffer (Cy3 cluster intensity, sum of 5 cycles each) (fold (ratio)); higher = stronger signal-on switching upon ATP binding; sequences stand for … in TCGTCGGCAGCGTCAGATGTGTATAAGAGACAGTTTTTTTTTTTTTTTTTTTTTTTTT…TC
RUN_PARAMETERS: aptamer strand: ATP DNA aptamer (quencher-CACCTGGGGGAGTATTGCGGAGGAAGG + anchor), 100 nM annealed; ATP concentration: 500 uM
MEASURED_METRIC: switch fluorescence ratio

> print(dat)
   item.sequence  target.entity            measured.metric  numeric.readout
1     ACGATGTACT            ATP  switch fluorescence ratio              1.1
2     CTGTATTACG            ATP  switch fluorescence ratio            0.995
3     AGTATTTGTG            ATP  switch fluorescence ratio             0.97
4     TATTTTTGGG            ATP  switch fluorescence ratio             0.99
5     TACTTTGGGC            ATP  switch fluorescence ratio             1.03
6     AGTCTAACTC            ATP  switch fluorescence ratio             1.02
7     CGCATGGCCT            ATP  switch fluorescence ratio             1.04
8     TTCAACTTAT            ATP  switch fluorescence ratio            0.954
9     TGATGGGGCG            ATP  switch fluorescence ratio            0.982

====

System: ATP;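 also: ATP exposure 15 min at 22 °C before imaging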
METHOD: switch fluorescence ratio, 500 uM ATP over buffer (Cy3 cluster intensity, sum of 5 cycles each) (fold (ratio)); higher = stronger signal-on switching upon ATP binding; sequences stand for … in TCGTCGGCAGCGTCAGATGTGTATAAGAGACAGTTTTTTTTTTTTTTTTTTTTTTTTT…TC
RUN_PARAMETERS: aptamer strand: ATP DNA aptamer (quencher-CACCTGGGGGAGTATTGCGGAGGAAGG + anchor), 100 nM annealed; ATP concentration: 500 uM
Listing of recorded switch fluorescence ratio by entry.
MEASURED_METRIC: switch fluorescence ratio

> print(dat)
    item.sequence  target.entity            measured.metric  numeric.readout
 1     CCTGGTGAGG            ATP  switch fluorescence ratio             1.04
 2     TAAATCGGCA            ATP  switch fluorescence ratio                1
 3     ACGAACGGGG            ATP  switch fluorescence ratio             1.27
 4     GCGCCAAGAG            ATP  switch fluorescence ratio             1.29
 5     GAGTACTGTA            ATP  switch fluorescence ratio             1.14
 6     TGGTCCTGGT            ATP  switch fluorescence ratio            0.997
 7     GATTGGGTTC            ATP  switch fluorescence ratio            0.968
 8     CCCGGCCCAG            ATP  switch fluorescence ratio             1.05
 9     TTTGATCAGA            ATP  switch fluorescence ratio                1
10     AAAATTGTCT            ATP  switch fluorescence ratio            0.981
11     TTGGGTGAGT            ATP  switch fluorescence ratio             1.01
12     GTTTGGACAG            ATP  switch fluorescence ratio             1.01
13     CCTGTTTCTA            ATP  switch fluorescence ratio             1.17
14     CTGTATTCTG            ATP  switch fluorescence ratio            0.962
15     CGGGCCGTTT            ATP  switch fluorescence ratio             1.06
16     GGGTAGTGAG            ATP  switch fluorescence ratio            0.999
17     ATTTGAGTTT            ATP  switch fluorescence ratio             1.01
18     TTAGTTGTGG            ATP  switch fluorescence ratio            0.982
19     TTAGTTTAAT            ATP  switch fluorescence ratio             1.02
20     TAGAGGTTGG            ATP  switch fluorescence ratio            0.981
21     GTGAAGGGGA            ATP  switch fluorescence ratio             1.09
22     TTGGGGTCGA            ATP  switch fluorescence ratio            0.951
23     TCTATTTGTG            ATP  switch fluorescence ratio            0.966
24     TCTAGAGGGT            ATP  switch fluorescence ratio             1.01
25     GGGCATTGGT            ATP  switch fluorescence ratio            0.991
26     AATTTTTTAT            ATP  switch fluorescence ratio            0.979
27     AAGGGTTGAG            ATP  switch fluorescence ratio            0.981
